- PROTOCOL: in vitro
- COND: rat, gh3-tre-luc cells, AC50 (uM) modified / 1000
Where a name gives a salt, the structure may show the parent alone.
In this section, each of the molecules is paired with its reported CC50 at 24 h.

| MOLECULE | CC50 at 24 h |
| --- | --- |
| CNCCCC12CCC(c3ccccc31)c1ccccc12 | 6.11 µM |
| CO[Si](C)(OC)c1ccccc1 | > 90 µM |
| CC(Cc1ccccc1)(NC(=O)CN)c1ccccc1 (stereo not shown) [Remacemide hydrochloride] | > 50 µM |
| OCc1ccco1 | > 90 µM |
| CCCCC(C)(O)C/C=C/[C@H]1[C@H](O)CC(=O)[C@@H]1CCCCCCC(=O)OC (mixture of isomers) | > 50 µM |
| CCC(=O)Nc1cccc(N)c1 [N-(3-Aminophenyl)propanamide] | > 90 µM |
| CC(C)OC(=O)Nc1ccc2[nH]c(-c3cscn3)nc2c1 | 4.4 µM |
| CCCCCCCCCCCCCCCCCC#N | > 90 µM |
| Clc1ccc([C@@H]2C[C@H]3CC[C@@H]2N3)cn1 [(+)-Epibatidine hydrochloride] | > 90 µM |
| O=C(Nc1ncc([N+](=O)[O-])s1)c1cccs1 | 30.4 µM |

[Q] Recorded CC50 at 24 h for Cc1cc(=O)c2c(O)c3c(O)cc(=O)c4c3c3c(cc(O)c1c23)C(C)(C)C=4O , please?
[A] 0.889 µM

[Q] Recorded CC50 at 24 h for C[Si](C)(C)Cl , please?
[A] > 90 µM

[Q] Recorded CC50 at 24 h for CC(C)CC(=O)C1C(=O)c2ccccc2C1=O , please?
[A] > 90 µM

[Q] Recorded CC50 at 24 h for C[C@]12C=CC(=O)C=C1CC[C@@H]1[C@@H]2C(=O)C[C@@]2(C)[C@H]1CC[C@]2(O)C(=O)CO , please?
[A] > 90 µM

====

In this section, each of the compounds is paired with its reported CC50 at 24 h.
- PROTOCOL: in vitro
- COND: rat, gh3-tre-luc cells, AC50 (uM) modified / 1000

Please review the following examples before continuing.
| COMPOUND | RESULT |
| --- | --- |
| CCC(C)S (stereo not drawn) [2-Butanethiol] | > 4 µM |
| CC(C)=CC(=O)C=C(C)C [Phorone] | > 90 µM |

Now, please, on to the next compound.
[Q] Recorded CC50 at 24 h for C[C@@H]1C[C@H]2[C@@H]3C[C@H](F)C4=CC(=O)C=C[C@]4(C)[C@@]3(Cl)[C@@H](O)C[C@]2(C)[C@H]1C(=O)COC(=O)C(C)(C)C [Clocortolone pivalate] , please?
[A] > 50 µM

====

In this section, each of the molecules is paired with its reported CC50 at 24 h.
- PROTOCOL: in vitro
- COND: rat, gh3-tre-luc cells, AC50 (uM) modified / 1000
Structures can show the parent of a compound that is named as a salt.

Please review the following examples before continuing.
| MOLECULE | PROPERTY | RESULT |
| --- | --- | --- |
| CNc1c2c(nn1C)CCCC2 | CC50 at 24 h | > 50 µM |
| CC1=Nc2ccc3ccccc3c2C1(C)C [1,1,2-Trimethyl-1H-benzo[e]indole] | CC50 at 24 h | > 90 µM |
| O=C(Cl)c1ccc([N+](=O)[O-])cc1 [4-Nitrobenzoyl chloride] | CC50 at 24 h | > 90 µM |

[Q] Recorded CC50 at 24 h for CCCCCC1CCC(=O)O1 (stereo not drawn) , please?
[A] > 90 µM

[Q] Recorded CC50 at 24 h for O=C[C@H](O)[C@@H](O)[C@H](O[C@H]1O[C@H](CO)[C@@H](O[C@H]2O[C@H](CO)[C@@H](O)[C@H](O)[C@H]2O)[C@H](O)[C@H]1O)[C@H](O)CO , please?
[A] > 50 µM

[Q] Recorded CC50 at 24 h for C=CC(=O)NC(C)(C)C [tert-Butylacrylamide] , please?
[A] > 90 µM

[Q] Recorded CC50 at 24 h for Cc1cccc(CN2CCN(C(c3ccccc3)c3ccc(Cl)cc3)CC2)c1 (stereo not drawn) [Meclozine dihydrochloride] , please?
[A] 15.6 µM

[Q] Recorded CC50 at 24 h for C[C@]12CCC(=O)C=C1C=C[C@@H]1[C@@H]2CC[C@@]2(C)[C@H]1CC[C@@]21CCC(=O)O1 , please?
[A] > 50 µM

[Q] Recorded CC50 at 24 h for CCCCCCCCCCCCCCCC(=O)OCC [Ethyl hexadecanoate] , please?
[A] > 90 µM

[Q] Recorded CC50 at 24 h for O=C1CCC(c2ccccc2)(C2CCN(Cc3ccccc3)CC2)C(=O)N1 (stereo not drawn) [Benzetimide] , please?
[A] > 50 µM

[Q] Recorded CC50 at 24 h for CC(c1ccc(O)cc1)(c1ccc(O)cc1)c1ccc(O)cc1 , please?
[A] 55.5 µM

[Q] Recorded CC50 at 24 h for CCCCCCCCCCCCCCCCSCC(COC)COP(=O)([O-])OCC[N+](C)(C)C (stereo not drawn) , please?
[A] 19.3 µM
